- system.name: DrDM15 (zebrafish)
- protocol.notes: EMSA
- condition.set: stated only as picomolar affinity; 5' m7G cap (Vaccinia capping); EMSA: 20 mM Tris-HCl pH 8, 150 mM NaCl, 10% glycerol, 1 mM DTT, 0.5 ug tRNA, 1 ug BSA, pM RNA (95 C, snap cooled), 0.5-1 h on ice; native 7% PAGE, 0.5X TBE

[
  {
    "query.sequence": "CUUUUGCCAUUGUCAGCCGACGAAGUGCUUUAACCCAAACUA [DmRPL30 42-mer, capped]",
    "system.name": "DrDM15 (zebrafish)",
    "Kd": "< 1000 pM"
  }
]
